Biological target: LIMK1KD (Homo sapiens)
Construct: His6 (N, cleaved yes); made in house; host or cells: baculovirus; Sf9 for virus, TriEx insect cells for expression
Sequence (P53667 330-637): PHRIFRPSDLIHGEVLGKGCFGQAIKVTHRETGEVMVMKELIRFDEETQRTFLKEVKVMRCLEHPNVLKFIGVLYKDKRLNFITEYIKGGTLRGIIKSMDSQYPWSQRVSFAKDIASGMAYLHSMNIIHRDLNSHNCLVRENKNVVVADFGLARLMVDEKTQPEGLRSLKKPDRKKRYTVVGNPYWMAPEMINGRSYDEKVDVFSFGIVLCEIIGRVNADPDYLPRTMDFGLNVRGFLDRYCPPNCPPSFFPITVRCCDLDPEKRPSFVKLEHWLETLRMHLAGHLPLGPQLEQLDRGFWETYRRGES
Experiment: Differential (dynamic) scanning fluorimetry (DSF) assay, LIMK1KD
Format: binding
Details: 2 µM LIMK1KD, compound 10 µM, single shot; read-out: TM Shift LIMK1 (K)
Where a name gives a salt, the structure may show the parent alone.
Answer Criterion not met if ΔTm at 10 µM is under 1 °C, and Criterion met if it is 1 °C or more.

{"compound": "CC(=O)c1c(C)c2cnc(Nc3ccc(N4CCNCC4)cn3)nc2n(C2CCCC2)c1=O [Palbociclib (PD-0332991) HCl, Palbociclib]", "tested.on": "LIMK1KD (Homo sapiens)", "qualitative.label": "Criterion not met"}
{"compound": "Cc1c(Cn2c(C)nc3c(C(=O)O)cc(N4CCOCC4)cc32)cccc1C(F)(F)F", "tested.on": "LIMK1KD (Homo sapiens)", "qualitative.label": "Criterion not met"}
{"compound": "COc1cc2c(Oc3ccc(NC(=O)C4(C(=O)Nc5ccc(F)cc5)CC4)cc3F)ccnc2cc1OCCCN1CCOCC1", "tested.on": "LIMK1KD (Homo sapiens)", "qualitative.label": "Criterion met"}
{"compound": "Nc1ncnc2c1c(COc1cccc(Cl)c1)nn2C1CCOCC1", "tested.on": "LIMK1KD (Homo sapiens)", "qualitative.label": "Criterion met"}
{"compound": "COc1cc(Nc2ncc3c(n2)-c2ccc(Cl)cc2C(c2c(F)cccc2OC)=NC3)ccc1C(=O)O", "tested.on": "LIMK1KD (Homo sapiens)", "qualitative.label": "Criterion not met"}
{"compound": "Cc1cc2c(F)c(Oc3ncnn4cc(OC[C@@H](C)OC(=O)[C@H](C)N)c(C)c34)ccc2[nH]1 [Brivanib Alaninate (BMS-582664), Brivanib Alaninate]", "tested.on": "LIMK1KD (Homo sapiens)", "qualitative.label": "Criterion not met"}
{"compound": "C[C@@H](Oc1cc(-n2cnc3ccc(CN4CCN(C)CC4)cc32)sc1C(N)=O)c1ccccc1C(F)(F)F", "tested.on": "LIMK1KD (Homo sapiens)", "qualitative.label": "Criterion met"}
